# tested_system: potato phosphatase (Solanum tuberosum)
# experiment_summary: Phosphatase assay B, substrate specificity
# recorded_conditions: purified potato phosphatase, assay B, pH 5.8, 25° C
# Vmax values compiled below

compound: C[C@@H](OP(=O)(O)O)[C@H](N)C(=O)O [P-Tbr]
Vmax: 99 units/mg
//
compound: C=C(OP(=O)(O)O)C(=O)O [PEP]
Vmax: 764 units/mg
//
compound: O=P(O)(O)OP(=O)(O)O [PPi]
Vmax: 1728 units/mg
//
compound: Nc1ncnc2c1ncn2[C@@H]1O[C@H](COP(=O)(O)OP(=O)(O)O)[C@@H](O)[C@H]1O [Mg-ADP]
Vmax: 46 units/mg
//
compound: NC(COP(=O)(O)O)C(=O)O (centres unmarked) [P-Ser]
Vmax: 389 units/mg

====

# tested_system: potato phosphatase (Solanum tuberosum, UniProt Q6J5M8)
# Sequence (Q6J5M8 entry or part of it with the stated changes): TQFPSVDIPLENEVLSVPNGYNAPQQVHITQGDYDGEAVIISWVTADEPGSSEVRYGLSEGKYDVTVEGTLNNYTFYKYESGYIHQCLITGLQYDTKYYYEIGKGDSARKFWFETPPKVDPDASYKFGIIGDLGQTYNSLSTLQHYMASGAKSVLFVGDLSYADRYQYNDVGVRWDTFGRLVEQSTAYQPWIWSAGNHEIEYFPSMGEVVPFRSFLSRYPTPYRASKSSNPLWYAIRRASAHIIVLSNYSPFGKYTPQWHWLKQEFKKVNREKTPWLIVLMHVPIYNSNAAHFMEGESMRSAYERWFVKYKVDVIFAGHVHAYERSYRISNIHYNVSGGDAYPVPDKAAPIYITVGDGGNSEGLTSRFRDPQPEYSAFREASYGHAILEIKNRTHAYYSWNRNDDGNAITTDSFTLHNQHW
# experiment_summary: biochemical
# Assay type: biochemical
# Set-up: mature chain from Thr30, C-terminus not determined
# recorded_conditions: 4 mM, added as Cl- salt; Ca, Co, Mn with no added Mg2+
# Protocol: Unless otherwise stated all kinetic studies of the potato phosphatase were performed with PEP using assay A (infra). The phosphatase was activated approximately 40% in the presence of saturating (4 mM) Mg^2+ (added as MgCl2). […] Assays were initiated by the addition of enzyme preparation. One unit of phosphatase activity is defined as the quantity of enzyme that would catalyze the hydrolysis of 1 […] of substrate/min at 25° C.

smiles_str: [Ca+2]
activation of the phosphatase: about 30%
//
smiles_str: [Co+2]
activation of the phosphatase: about 30%
//
smiles_str: [Mn+2]
activation of the phosphatase: about 30%

// data source = patent US5977435A
